Biological target: GSK3α (GST-full length GSK3α) (Homo sapiens (Human), UniProt P49840)
Sequence (P49840 whole entry): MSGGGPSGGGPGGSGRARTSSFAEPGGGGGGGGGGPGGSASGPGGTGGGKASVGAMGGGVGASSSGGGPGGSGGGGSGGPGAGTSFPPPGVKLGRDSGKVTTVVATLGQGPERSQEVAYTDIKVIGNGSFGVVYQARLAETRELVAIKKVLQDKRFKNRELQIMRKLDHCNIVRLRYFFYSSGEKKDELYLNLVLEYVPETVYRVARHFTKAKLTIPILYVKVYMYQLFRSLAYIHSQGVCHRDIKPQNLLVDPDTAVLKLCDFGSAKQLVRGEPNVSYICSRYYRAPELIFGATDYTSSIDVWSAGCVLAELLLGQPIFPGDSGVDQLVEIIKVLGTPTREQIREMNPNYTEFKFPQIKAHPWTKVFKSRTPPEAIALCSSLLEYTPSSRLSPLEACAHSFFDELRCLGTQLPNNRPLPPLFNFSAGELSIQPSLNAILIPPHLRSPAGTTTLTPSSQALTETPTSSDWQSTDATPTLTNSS
Assay: GSK3α TR-FRET kinase assay
Type: biochemical
Conditions: 1 nM GSK3α, 4 μM ATP, 30 minute preincubation, Table 16; read-out: GSK3-A TR-FRET BIOCHEMICAL (TR-FRET); IC50
Catalogue of compounds with associated IC50
PARAMETER MEASURED: IC50

COMPOUND: CN1CCCC2(CC1)C1=C(CC(C)(C)CC1=O)Nc1n[nH]cc12 (stereo not shown)
REPORTED: > 5000 nM
--
COMPOUND: CC[C@@]1(c2cccc(-c3ccnn3C)c2)C2=C(CC3(CCS(=O)(=O)CC3)NC2=O)Nc2n[nH]cc21
REPORTED: 1000 to 5000 nM
--
COMPOUND: CC[C@@]1(c2cccc(-c3cn(C)nc3C)c2)C2=C(CC(C)(C)C2=O)Nc2n[nH]cc21
REPORTED: > 5000 nM
--
COMPOUND: CC[C@]1(c2cccc(-c3ccnnc3)c2)C2=C(CC(C)(C)CC2=O)Nc2n[nH]cc21
REPORTED: ≤ 100 nM
--
COMPOUND: CC1(C)CC(=O)C2=C(C1)Nc1n[nH]cc1C21CN(C2CCOCC2)C1
REPORTED: > 5000 nM
--
COMPOUND: CCC1(c2cccc(C(F)(F)F)c2)C2=C(CCN(c3nn(C)cc3C)C2=O)Nc2n[nH]cc21 (stereo not shown)
REPORTED: 100 to 1000 nM
--
COMPOUND: CCC1(c2cccc(C(F)(F)F)c2)C2=C(CCN(c3cnn(C)c3C)C2=O)Nc2n[nH]cc21 (stereo not shown) [Compound 950612]
REPORTED: ≤ 100 nM
--
COMPOUND: CC[C@H]1CCN1c1cccc([C@@]2(CC)C3=C(CC(C)(C)CC3=O)Nc3n[nH]cc32)c1
REPORTED: 1000 to 5000 nM
--
COMPOUND: CC[C@@]1(c2cccc(C(F)(F)F)c2)C2=C(CCN(c3ccsc3)C2=O)Nc2n[nH]cc21
REPORTED: ≤ 100 nM
--
COMPOUND: CCC1(c2cccc(-c3cc(C)ncc3F)c2)C2=C(CC(C)(C)CC2=O)Nc2n[nH]cc21 (stereo not shown) [Compound 927346]
REPORTED: ≤ 100 nM
--
COMPOUND: CC1(C)CC(=O)C2=C(C1)Nc1n[nH]cc1[C@@]21CCCOCC1
REPORTED: 100 to 1000 nM
--
COMPOUND: CCC1(c2cccc(-c3c(C)nn(C)c3C)c2)C2=C(CC(C)(C)CC2=O)Nc2n[nH]cc21 (stereo not shown) [Compound 911991]
REPORTED: 100 to 1000 nM
--
COMPOUND: CC[C@]1(c2cccc(-c3cn(C)nc3C(C)C)c2)C2=C(CC(C)(C)CC2=O)Nc2n[nH]c(C)c21
REPORTED: 100 to 1000 nM
--
COMPOUND: CC[C@]1(c2cccc(Oc3ncccn3)c2)C2=C(CC(C)(C)NC2=O)Nc2n[nH]cc21
REPORTED: ≤ 100 nM
--
COMPOUND: Cn1ccc(CN2CC3(C2)C2=C(CC(C)(C)CC2=O)Nc2n[nH]cc23)n1
REPORTED: > 5000 nM
--
COMPOUND: C[C@@H]1CC(=O)C2=C(C1)Nc1n[nH]cc1C21CCOCC1
REPORTED: 100 to 1000 nM
